species: Homo sapiens; experiment: Selectivity index, ratio of Ki for recombinant human CB1R expressed in HEK293 cell membranes to Ki for recombinant human CB2R expressed in HEK293 cell membranes; format: cell-based
Property name: Ratio Ki

- Molecule: "Cc1nc(-c2ccccc2)sc1C(=O)NC12CC3CC(CC(C3)C1)C2"
  Property name: "Ratio Ki"
  Result: "> 22"
- Molecule: "Cc1nc(C(C)(C)C)sc1C(=O)NC12CC3CC(CC(C3)C1)C2"
  Property name: "Ratio Ki"
  Result: "> 25"
- Molecule: "O=C(NC12CC3CC(CC(C3)C1)C2)c1nc2ccccc2s1"
  Property name: "Ratio Ki"
  Result: "> 121"
- Molecule: "CCCCCn1/c(=N/C(=O)c2cccc3ccccc23)sc2ccccc21"
  Property name: "Ratio Ki"
  Result: 22.2
- Molecule: "CCCCCn1/c(=N\\C(=O)C23CC4CC(CC(C4)C2)C3)sc2ccccc21"
  Property name: "Ratio Ki"
  Result: 120
- Molecule: "O=C(Nc1nc2ccccc2s1)c1cccc2ccccc12"
  Property name: "Ratio Ki"
  Result: "> 7"

Q) Provide one value: measured Ratio Ki of "O=C(NCC1CCCCC1)c1nc2ccccc2s1"
A) > 7
